pIC50 overview
target: HLA B*1501 (Homo sapiens, UniProt P01889, A329T/A93T/A95T/C349S/D201E/D98Y/E187L/E204Q/E69M/E70A/K202T/N87E/Q94N/R155S/R180W/S121R/S35A/S48A/V306I/V36M/Y140S/Y91S); experiment: biochemical
Where a SMILES comes first, the peptide text is derived from it.
To interpret pIC50, take it as minus log10 of a concentration measured in moles per litre.

Look up pIC50: CC[C@H](C)[C@H](NC(=O)[C@H](Cc1ccc(O)cc1)NC(=O)[C@H](CCSC)NC(=O)[C@@H](N)CC(C)C)C(=O)N[C@@H](CC(C)C)C(=O)NCC(=O)N[C@H](C(=O)N[C@@H](Cc1ccc(O)cc1)C(=O)NCC(=O)O)[C@@H](C)O [3102.0828] (H-LMYILGTYG-OH) 7.21

Turning to the following compound.
Look up pIC50: CC(C)C[C@H](N)C(=O)N[C@@H](CO)C(=O)N[C@@H](CCCNC(=N)N)C(=O)N[C@H](C(=O)N[C@@H](Cc1ccccc1)C(=O)N[C@@H](Cc1ccccc1)C(=O)N[C@@H](CS)C(=O)N[C@H](C(=O)N[C@@H](Cc1ccc(O)cc1)C(=O)O)C(C)C)C(C)C [3102.0840] (H-LSRVFFCVY-OH) 8.54

====

target: H-2 D^d (Mus musculus); format: binding
Sequence (P01900 whole entry, looked up): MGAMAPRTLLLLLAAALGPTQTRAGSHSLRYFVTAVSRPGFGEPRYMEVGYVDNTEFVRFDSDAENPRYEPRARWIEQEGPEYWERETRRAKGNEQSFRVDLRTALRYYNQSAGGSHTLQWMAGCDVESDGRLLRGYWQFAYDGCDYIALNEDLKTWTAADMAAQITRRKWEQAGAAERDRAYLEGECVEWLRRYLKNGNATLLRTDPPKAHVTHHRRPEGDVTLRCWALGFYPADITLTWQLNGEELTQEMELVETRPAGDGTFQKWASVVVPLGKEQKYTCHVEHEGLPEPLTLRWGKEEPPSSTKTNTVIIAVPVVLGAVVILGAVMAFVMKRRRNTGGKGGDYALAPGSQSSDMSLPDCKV
Normalized average relative binding affinity(ARB) overview
Give your answer as a number; write no unit.

Look up Normalized average relative binding affinity(ARB): XXXNXXXXX [3064.0072] 0.40

Now this one: XXXXXYXXX [3064.0120] 0.83

Now this one: XXXMXXXXX [3064.0071] 0.49

Now this one: XXXXXXFXX [3064.0125] 1.0

Now this one: XXXXXNXXX [3064.0112] 0.39

Now this one: XXXHXXXXX [3064.0067] 0.53

Now this one: XXXXXMXXX [3064.0111] 0.48

Now this one: XXXXXXWXX [3064.0139] 0.044

Now this one: XXXXXXSXX [3064.0136] 0.038

Now this one: XXXXTXXXX [3064.0097] 0.18

---
Look up Normalized average relative binding affinity(ARB): XXXXFXXXX [3064.0085] 0.16

Now this one: XXXXXXXFX [3064.0145] 0.75

Now this one: XXXXMXXXX [3064.0091] 0.19

Now this one: XXXIXXXXX [3064.0068] 0.79

Now this one: XXXXKXXXX [3064.0089] 0.44

Now this one: XXXXXXYXX [3064.0140] 0.076

====

molecular target: HLA A*3201 (Homo sapiens, UniProt P04439, A270S/D101S/D185E/E176V/E277Q/F133L/G103R/G107R/G231S/H175R/I121M/I218V/I322F/K168Q/L105A/L300P/L318F/M331R/P208A/P217A/Q94H/R106L/R138Q/S129P/T104I/T323A/T345S/V100E/V321M/V358M); assay: biochemical
pIC50: −log10 of the molar value. Where a SMILES comes first, the peptide text is derived from it.
Where pIC50 equals or exceeds 8, the correct label is 1 (yes); where it does not, the label is 0 (no).

Look over these answered cases.
Given the entry CC[C@H](C)[C@H](NC(=O)[C@@H](N)CCSC)C(=O)N[C@@H](Cc1ccccc1)C(=O)N[C@@H](Cc1ccccc1)C(=O)N[C@@H](CC(N)=O)C(=O)N1CCC[C@H]1C(=O)N[C@H](C(=O)N[C@@H](CO)C(=O)N[C@@H](Cc1ccccc1)C(=O)O)C(C)C [3102.0841] (H-MIFFNPVSF-OH) , answer whether its pIC50 meets or surpasses 8. 1 (yes)

Now this one: CC[C@H](C)[C@H](N)C(=O)N[C@@H](CC(C)C)C(=O)N[C@@H](Cc1ccccc1)C(=O)N[C@@H](Cc1ccc(O)cc1)C(=O)N[C@@H](Cc1ccccc1)C(=O)N[C@@H](C)C(=O)N[C@@H](CC(N)=O)C(=O)NCC(=O)N[C@H](C(=O)O)[C@@H](C)CC [3102.1147] (H-ILFYFANGI-OH) 0 (no)

Now this one: CC[C@H](C)[C@H](NC(=O)[C@@H](NC(=O)[C@H](CO)NC(=O)[C@H](CC(C)C)NC(=O)[C@@H](NC(=O)[C@H](CCSC)NC(=O)[C@H](CCSC)NC(=O)[C@@H](NC(=O)[C@H](C)N)[C@@H](C)CC)[C@@H](C)CC)[C@@H](C)O)C(=O)O [3102.0350] (H-AIMMILSTI-OH) 1 (yes)

Now this one: CC[C@H](C)[C@H](N)C(=O)N[C@H](C(=O)N[C@@H](Cc1c[nH]c2ccccc12)C(=O)N[C@@H](CCCCN)C(=O)NCC(=O)N[C@H](C(=O)N[C@@H](Cc1ccc(O)cc1)C(=O)N[C@H](C(=O)N[C@@H](Cc1ccc(O)cc1)C(=O)O)[C@@H](C)O)[C@@H](C)CC)[C@@H](C)CC [3102.0441] (H-IIWKGIYTY-OH) 1 (yes)

---
Given the entry CC[C@H](C)[C@H](NC(=O)[C@H](CC(N)=O)NC(=O)[C@H](CC(N)=O)NC(=O)[C@@H](NC(=O)[C@@H]1CCCN1C(=O)[C@H](CCC(N)=O)NC(=O)[C@H](CC(N)=O)NC(=O)[C@H](CC(C)C)NC(=O)[C@@H](N)CCCNC(=N)N)C(C)C)C(=O)O [3102.0398] (H-RLNQPVNNI-OH) , answer whether its pIC50 meets or surpasses 8. 0 (no)

Now this one: CC[C@H](C)[C@H](NC(=O)[C@@H](N)CCCCN)C(=O)N[C@@H](CC(=O)O)C(=O)N[C@@H](CC(N)=O)C(=O)N[C@@H](Cc1ccc(O)cc1)C(=O)N[C@H](C(=O)N[C@H](C(=O)N[C@@H](CCCCN)C(=O)N[C@@H](Cc1ccccc1)C(=O)O)C(C)C)C(C)C [3102.0414] (H-KIDNYVVKF-OH) 0 (no)

Now this one: C[C@@H](O)[C@H](NC(=O)[C@H](CCCNC(=N)N)NC(=O)[C@H](CC(N)=O)NC(=O)[C@H](Cc1ccccc1)NC(=O)[C@@H](NC(=O)[C@@H](N)CCCNC(=N)N)[C@@H](C)O)C(=O)N[C@@H](Cc1c[nH]cn1)C(=O)N[C@@H](Cc1ccc(O)cc1)C(=O)N[C@@H](Cc1c[nH]c2ccccc12)C(=O)O [3102.0309] (H-RTFNRTHYW-OH) 1 (yes)

====

pIC50 overview
biological target: HLA B*1503 (Homo sapiens, UniProt P01889, A329T/A93T/A95T/C349S/D201E/D98Y/E187L/E204Q/K202T/N87E/Q94N/R155S/R180L/S121R/S35A/V306I/V36M/Y140S/Y91S); test: biochemical
Where a SMILES comes first, the peptide text is derived from it.
To interpret pIC50, take it as minus log10 of a concentration measured in moles per litre.

Look up pIC50: C[C@@H](O)[C@H](NC(=O)[C@H](CCCCN)NC(=O)[C@H](Cc1ccc(O)cc1)NC(=O)[C@H](CCC(N)=O)NC(=O)[C@@H](N)CCC(=O)O)C(=O)N[C@@H](CCC(=O)O)C(=O)N[C@@H](CO)C(=O)N[C@@H](Cc1ccccc1)C(=O)N[C@@H](Cc1ccccc1)C(=O)O [3102.1224] (H-EQYKTESFF-OH) 8.74

Turning to the following molecule.
Look up pIC50: CC[C@H](C)[C@H](N)C(=O)N[C@@H](CCC(N)=O)C(=O)N[C@@H](Cc1ccc(O)cc1)C(=O)N[C@@H](CC(=O)O)C(=O)N[C@@H](CCCNC(=N)N)C(=O)N[C@@H](CCCNC(=N)N)C(=O)N[C@@H](CO)C(=O)N[C@@H](Cc1ccccc1)C(=O)N[C@@H](Cc1ccccc1)C(=O)O [3102.1327] (H-IQYDRRSFF-OH) 9.82

====

molecular target: HLA B*5101 (Homo sapiens, UniProt P01889, A329T/A93T/A95T/C349S/D138N/D201E/D98Y/E187L/E204Q/E69T/G107R/I218V/K202T/L105A/L119W/N104I/Q94N/R106L/R155S/R180L/S101N/S121T/S35A/S48A/V306I/V36M/Y195H/Y91F); type: binding
Normalized average relative binding affinity (ARB), HLA B*5101 overview

Consider the following illustrative entries.
Look up Normalized average relative binding affinity (ARB), HLA B*5101: XXCXXXXXX [3064.0042] 0.24

Now this one: XAXXXXXXX [3064.0021] 0.54

---
Look up Normalized average relative binding affinity (ARB), HLA B*5101: XXIXXXXXX [3064.0048] 0.39

Now this one: XGXXXXXXX [3064.0026] 0.16

Now this one: LXXXXXXXX [3064.0010] 0.41

Now this one: XDXXXXXXX [3064.0023] 0.022

Now this one: XYXXXXXXX [3064.0040] 0.053
